experiment: In vivo toxic effect was determined in mouse after intraperitoneal administration with 10% aqueous acacia gum; value ranges from (0.47-0.85)
Format: toxicity, organism-based
experimental conditions: ip
endpoint: LD50 (µmol/kg)
Output spec: scalar in µmol/kg, unitless text.

Lab book: LD50 of CCCCOc1cc(C(=O)NCCN2CCN(c3ccccn3)CC2)c2ccccc2n1.Cl.Cl noted as 540

* * *

experiment: In vivo toxic effect was determined in mouse after oral administration with 10% aqueous acacia gum; value ranges from 0.92-1.78
Format: toxicity, organism-based
endpoint: LD50 (µmol/kg)
Output spec: scalar in µmol/kg, unitless text.

Lab book: LD50 of Nc1ccc(NC(=O)CCN2CCN(c3ccccn3)CC2)cc1 noted as 1290

* * *

experiment: In vivo toxic effect was determined in mouse after intraperitoneal administration with 10% aqueous acacia gum; value ranges from 0.48-0.77
Type: toxicity, organism-based
experimental conditions: ip
endpoint: LD50 (µmol/kg)
Output spec: scalar in µmol/kg, unitless text.

Lab book: LD50 of COc1cccc(N2CCN(CCC(=O)Nc3ccc(N)cc3)CC2)n1.Cl.Cl noted as 530

* * *

experiment: In vivo toxic effect was determined in mouse after oral administration with 10% aqueous acacia gum; value ranges from 0.53-0.84
Type: toxicity, organism-based
endpoint: LD50 (µmol/kg)
Output spec: scalar in µmol/kg, unitless text.

Lab book: LD50 of COc1cccc(N2CCN(CCC(=O)Nc3ccccc3N)CC2)n1.Cl.Cl noted as 670

* * *

experiment: In vivo toxic effect was determined in mouse after intraperitoneal administration with 10% aqueous acacia gum; value ranges from 1-1.40
Format: toxicity, organism-based
experimental conditions: ip
endpoint: LD50 (µmol/kg)
Output spec: scalar in µmol/kg, unitless text.

Lab book: LD50 of CC1CN(c2ccccn2)CCN1CCC(=O)Nc1ccc(N)cc1.Cl (stereo unspecified) noted as 1190

* * *

experiment: In vivo toxic effect was determined in mouse after oral administration with 10% aqueous acacia gum; value ranges from 0.97-1.87
Assay type: toxicity, organism-based
endpoint: LD50

Lab book: LD50 of O=C(CCN1CCN(c2ccccn2)CC1)Nc1ccccc1 noted as 1350 µmol/kg

* * *

experiment: In vivo toxic effect was determined in mouse after oral administration with 10% aqueous acacia gum; value ranges from 1.35-1.88
Assay type: toxicity, organism-based
endpoint: LD50 (µmol/kg)
Output spec: scalar in µmol/kg, unitless text.

Lab book: LD50 of Cc1ccccc1NC(=O)CCN1CCN(c2ccccn2)CC1 noted as 1580

* * *

experiment: In vivo toxic effect was determined in mouse after intraperitoneal administration with 10% aqueous acacia gum; value ranges from 0.88-1.56
Format: toxicity, organism-based
experimental conditions: ip
endpoint: LD50 (µmol/kg)
Output spec: scalar in µmol/kg, unitless text.

Lab book: LD50 of C=CCOC(=O)CCN1CCN(c2ccccn2)CC1.Cl.Cl noted as 1030

* * *

experiment: In vivo toxic effect was determined in mouse after intraperitoneal administration with 10% aqueous acacia gum; value ranges from 0.27-0.43
Type: toxicity, organism-based
experimental conditions: ip
endpoint: LD50 (µmol/kg)
Output spec: scalar in µmol/kg, unitless text.

Lab book: LD50 of Cc1c(C)c([N+](=O)[O-])c(C)c(C)c1C(=O)NCCN1CCN(c2ccccn2)CC1.Cl.Cl noted as 320

* * *

experiment: In vivo toxic effect was determined in mouse after intraperitoneal administration with 10% aqueous acacia gum; value ranges from 0.28-0.52
Type: toxicity, organism-based
experimental conditions: ip
endpoint: LD50

Lab book: LD50 of Cl.Cl.N#Cc1ccc(NC(=O)CCN2CCN(c3ccccn3)CC2)cc1 noted as 390 µmol/kg

* * *

experiment: In vivo toxic effect was determined in mouse after intraperitoneal administration with 10% aqueous acacia gum; value ranges from 0.29-0.42
Assay type: toxicity, organism-based
experimental conditions: ip
endpoint: LD50 (µmol/kg)
Output spec: scalar in µmol/kg, unitless text.

Lab book: LD50 of CN1CCC(=C2c3ccccc3CC(=O)c3sccc32)CC1 noted as 350

* * *

experiment: In vivo toxic effect was determined in mouse after intraperitoneal administration with 10% aqueous acacia gum; value ranges from 1.82-3.42
Assay type: toxicity, organism-based
experimental conditions: ip
endpoint: LD50
Number plus unit, in that order.

Lab book: LD50 of Cl.Cl.NC(=O)CCN1CCN(c2ccccn2)CC1 noted as 2440 µmol/kg

* * *

experiment: In vivo toxic effect was determined in mouse after intraperitoneal administration with 10% aqueous acacia gum; value ranges from 0.63-1.05
Format: toxicity, organism-based
experimental conditions: ip
endpoint: LD50 (µmol/kg)
Output spec: scalar in µmol/kg, unitless text.

Lab book: LD50 of Cc1c(C)c(C(=O)NCCN2CCN(c3ccccn3)CC2)c(C)c(C)c1N noted as 710

* * *

experiment: In vivo toxic effect was determined in mouse after intraperitoneal administration with 10% aqueous acacia gum; value ranges from 0.96-1.77
Type: toxicity, organism-based
experimental conditions: ip
endpoint: LD50 (µmol/kg)
Output spec: scalar in µmol/kg, unitless text.

Lab book: LD50 of Cl.Cl.O=C(CCN1CCN(c2ccccn2)CC1)Nc1ccccc1Cl noted as 1290

* * *

experiment: In vivo toxic effect was determined in mouse after intraperitoneal administration with 10% aqueous acacia gum; value ranges from 0.92-1.65
Assay type: toxicity, organism-based
experimental conditions: ip
endpoint: LD50 (µmol/kg)
Output spec: scalar in µmol/kg, unitless text.

Lab book: LD50 of Nc1ccc(NC(=O)CCN2CCN(c3ccccn3)CC2)cc1 noted as 1110

* * *

Test system: Cavia porcellus
experiment: Antibronchospatic activity determined by histamine stimulated bronchospasm inhibition in guinea pigs after(i.v.) administration
Format: functional, Bronchiole
endpoint: ID75 (µM/kg)
Output spec: scalar in µM/kg, unitless text.

molecule | endpoint unit | ID75
CCOC(=O)c1ccc(NC(=O)CCN2CCN(c3ccccn3)CC2)cc1.Cl.Cl | µM/kg | 0.17

Read the next record carefully.
Lab book: ID75 of O=C(O)CCN1CCN(c2ccccn2)CC1 noted as 5.23

* * *

experiment: In vivo toxic effect was determined in mouse after intraperitoneal administration with 10% aqueous acacia gum; value ranges from 0.54-0.99
Format: toxicity, organism-based
experimental conditions: ip
endpoint: LD50
Number plus unit, in that order.

Lab book: LD50 of CC(=O)c1cccc(NC(=O)CCN2CCN(c3ccccn3)CC2)c1.Cl.Cl noted as 680 µmol/kg

* * *

experiment: In vivo toxic effect was determined in mouse after intraperitoneal administration with 10% aqueous acacia gum; value ranges from 0.53-0.97
Assay type: toxicity, organism-based
experimental conditions: ip
endpoint: LD50 (µmol/kg)
Output spec: scalar in µmol/kg, unitless text.

Lab book: LD50 of CCOC(=O)c1ccc(NC(=O)CCN2CCN(c3ccccn3)CC2)cc1.Cl.Cl noted as 660

* * *

experiment: In vivo toxic effect was determined in mouse after oral administration with 10% aqueous acacia gum; value ranges from 1.79-2.41
Type: toxicity, organism-based
endpoint: LD50 (µmol/kg)
Output spec: scalar in µmol/kg, unitless text.

Lab book: LD50 of Nc1ccccc1NC(=O)CCN1CCN(c2ccccn2)CC1 noted as 2080

* * *

experiment: In vivo toxic effect was determined in mouse after intraperitoneal administration with 10% aqueous acacia gum; value ranges from 0.94-1.40
Assay type: toxicity, organism-based
experimental conditions: ip
endpoint: LD50
Number plus unit, in that order.

Lab book: LD50 of CC(C)Sc1ccc(NC(=O)CCN2CCN(c3ccccn3)CC2)cc1 noted as 1140 µmol/kg

* * *

experiment: In vivo toxic effect was determined in mouse after intraperitoneal administration with 10% aqueous acacia gum; value ranges from 0.50-0.84
Type: toxicity, organism-based
experimental conditions: ip
endpoint: LD50
Number plus unit, in that order.

Lab book: LD50 of Cc1cc(C)c(C)c(NC(=O)CCN2CCN(c3ccccn3)CC2)c1C.Cl.Cl noted as 570 µmol/kg

* * *

experiment: In vivo toxic effect was determined in mouse after oral administration with 10% aqueous acacia gum; value ranges from 0.77-1.28
Type: toxicity, organism-based
endpoint: LD50 (µmol/kg)
Output spec: scalar in µmol/kg, unitless text.

Lab book: LD50 of CCOc1ccc(NC(=O)CCN2CCN(c3ccccn3)CC2)cc1.Cl.Cl noted as 920

* * *

experiment: In vivo toxic effect was determined in mouse after intraperitoneal administration with 10% aqueous acacia gum; value ranges from 0.39-0.76
Assay type: toxicity, organism-based
experimental conditions: ip
endpoint: LD50
Number plus unit, in that order.

Lab book: LD50 of Cc1cc(N)cc(C)c1C(=O)NCCN1CCN(c2ccccn2)CC1.Cl noted as 550 µmol/kg

* * *

experiment: In vivo toxic effect was determined in mouse after intraperitoneal administration with 10% aqueous acacia gum; value ranges from 1.73-3.04
Format: toxicity, organism-based
experimental conditions: ip
endpoint: LD50 (µmol/kg)
Output spec: scalar in µmol/kg, unitless text.

Lab book: LD50 of CC(=O)c1ccccc1NC(=O)CCN1CCN(c2ccccn2)CC1.Cl.Cl noted as 2300

* * *

experiment: In vivo toxic effect was determined in mouse after oral administration with 10% aqueous acacia gum; value ranges from 0.86-1.66
Type: toxicity, organism-based
endpoint: LD50 (µmol/kg)
Output spec: scalar in µmol/kg, unitless text.

Lab book: LD50 of CC1CN(c2ccccn2)CCN1CCC(=O)Nc1ccc([N+](=O)[O-])cc1.Cl.Cl (stereo unspecified) noted as 1200
